- Test system: CCRIS mutagenicity, Ames/micronucleus/aberration tests
- Protocol: CCRIS mutagenicity studies
- Run Parameters: Test System: AMES SALMONELLA TYPHIMURIUM; Strain/Indicator: TA1535; Metabolic Activation: NONE; Method: PREINCUBATION
Calls of active or inactive are those of the source. How the calls were made is not given here.
Tick one outcome: active, inactive

Check out these entries, answers already filled in.
Brc1ccc(-c2ccccc2)cc1 ... inactive
CCCCCN(CCCCC)CCCCC ... inactive
CN(C)CCCN1c2ccccc2Sc2ccc(Cl)cc21 ... inactive

Next:
Exercise: Look up the recorded call for `OCCOCCO` in this test.
Key: inactive

---

- Tested on: CCRIS mutagenicity, Ames/micronucleus/aberration tests
- Protocol: CCRIS mutagenicity studies
- Run Parameters: Test System: E. COLI; Strain/Indicator: WP2 UVRA; Metabolic Activation: NONE; Method: STANDARD PLATE
The source made the active and inactive calls. No rule for the calls is given here.
Tick one outcome: active, inactive

Check out these entries, answers already filled in.
CC(C)(Oc1ccc(C(=O)c2ccc(Cl)cc2)cc1)C(=O)O ... inactive
CCCN(N=O)C(N)=O ... active
[CH3][Hg][Cl] ... active

Exercise: Look up the recorded call for `CN(C)c1ccc(N=NS(=O)(=O)O)cc1` in this test.
Key: active

Exercise: Look up the recorded call for CCc1cccc2c3c([nH]c12)C(CC)(CC(=O)O)OCC3 (stereo not given) in this test.
Key: inactive

Exercise: Look up the recorded call for `O=C1c2ccccc2C(=O)c2ccccc21` in this test.
Key: inactive

Exercise: Look up the recorded call for `Oc1cccc2cc3cccc(O)c3c(O)c12` in this test.
Key: inactive

Exercise: Look up the recorded call for `CCN(N=O)c1ccccc1` in this test.
Key: inactive

Exercise: Look up the recorded call for `ONc1ccc(Cl)cc1` in this test.
Key: inactive

Exercise: Look up the recorded call for `Nc1ncc([N+](=O)[O-])s1` in this test.
Key: inactive

---

- System: CCRIS mutagenicity, Ames/micronucleus/aberration tests
- Protocol: CCRIS mutagenicity studies
- Run Parameters: Test System: AMES SALMONELLA TYPHIMURIUM; Strain/Indicator: TA102; Metabolic Activation: NONE; Method: STANDARD PLATE
Calls of active or inactive are those of the source. The rule behind the calls is not given here.
Tick one outcome: 1 (yes) for active, 0 (no) for inactive

Cc1c(N=O)c(=O)n(-c2ccccc2)n1C ... 1 (yes)
COc1cc(O)c2c(O)c3c(=O)oc(C)cc3c(OC)c2c1 ... 1 (yes)
COc1cccc2c1C(=O)c1c(O)c3c(c(O)c1C2=O)C[C@@](O)(C(C)=O)C[C@@H]3O[C@@H]1C[C@@H](N(C)C)[C@@H](O)[C@@H](C)O1 ... 1 (yes)
COc1ccc2cc(CCC(C)=O)ccc2c1 ... 0 (no)
[Pb] ... 1 (yes)
COc1c(Cl)ccc(Cl)c1C(=O)O ... 0 (no)
CCCCC(CC)COC(=O)c1ccccc1C(=O)O (stereo unspecified) ... 0 (no)
CC(C)CCC[C@@H](C)[C@H]1CC[C@H]2[C@@H]3C[C@@H]4O[C@@]45C[C@@H](O)CC[C@]5(C)[C@H]3CC[C@]12C ... 0 (no)
ClC1C(Cl)C(Cl)C(Cl)C(Cl)C1Cl (stereo unspecified) ... 0 (no)
Clc1ccc2c(c1)C(c1ccccc1)=NCc1nncn1-2 ... 0 (no)

Exercise: Look up the recorded call for `CCN(CCCl)c1ccc(-c2nc3ccc(-c4nc5ccc(N6CCN(C)CC6)cc5[nH]4)cc3[nH]2)cc1` in this test.
Key: 0 (no)

---

- Test system: CCRIS mutagenicity, Ames/micronucleus/aberration tests
- Protocol: CCRIS mutagenicity studies
- Run Parameters: Test System: AMES SALMONELLA TYPHIMURIUM; Strain/Indicator: TA1537; Metabolic Activation: RAT, LIVER, S-9; Method: PREINCUBATION
Activity calls are given as the source filed them. No rule for the calls is given here.
Tick one outcome: active, inactive

Check out these entries, answers already filled in.
COC1=CC=CC=CC1 ... inactive
CCN(N=O)c1ccccc1 ... inactive
O=C1c2ccccc2C(=O)c2c(O)c(O)cc(O)c21 ... active

Next:
Exercise: Look up the recorded call for `CC(=O)N[C@@H]1[C@@H](O[C@@H]2O[C@H](C(=O)O)[C@@H](O[C@@H]3O[C@H](CO)[C@@H](O)[C@H](O[C@@H]4O[C@H](C(=O)O)[C@@H](O)[C@H](O)[C@H]4O)[C@H]3NC(C)=O)[C@H](O)[C@H]2O)[C@H](O)[C@@H](CO)O[C@H]1O` in this test.
Key: inactive

---

- System: CCRIS mutagenicity, Ames/micronucleus/aberration tests
- Protocol: CCRIS mutagenicity studies
- Run Parameters: Test System: AMES SALMONELLA TYPHIMURIUM; Strain/Indicator: TA100; Metabolic Activation: NONE; Method: PREINCUBATION
Active and inactive are the calls of the source. The rule behind the calls is not given here.
Tick one outcome: Y for active, N for inactive

NC(=O)Nc1nc2ccccc2[nH]1 ... N
COc1ccc(O)c(C(C)(C)C)c1 ... N
CCN(CC)CCNc1ccc(CO)c2sc3ccccc3c(=O)c12 ... Y

Exercise: Look up the recorded call for `Nc1ccc(N)c(S(=O)(=O)O)c1` in this test.
Key: N

Exercise: Look up the recorded call for `c1ccc(Nc2ccccc2)cc1` in this test.
Key: N

Exercise: Look up the recorded call for `c1ccc(Nc2ccc3ccccc3c2)cc1` in this test.
Key: N

Exercise: Look up the recorded call for `Nc1cc([N+](=O)[O-])ccc1-c1ccc([N+](=O)[O-])cc1` in this test.
Key: Y

---

- Tested on: CCRIS mutagenicity, Ames/micronucleus/aberration tests
- Protocol: CCRIS mutagenicity studies
- Run Parameters: Test System: AMES SALMONELLA TYPHIMURIUM; Strain/Indicator: TA100; Metabolic Activation: NONE; Method: STANDARD PLATE
- Source text: The CCRIS database contains chemical records with carcinogenicity, mutagenicity, tumor promotion, and tumor inhibition test results. It was developed by the National Cancer Institute (NCI). Data are derived from studies cited in primary journals, current awareness tools, NCI reports, and other sources. Test results have been reviewed by experts in carcinogenesis and mutagenesis. CCRIS provides historical information from the years 1985 - 2011. It is no longer updated. […]
Activity calls are given as the source filed them. How the calls were made is not given here.
Tick one outcome: active, inactive

Check out these entries, answers already filled in.
C=CCN(CC=C)CCN(CC=C)CC=C.[Cl-].[Cl-].[Pd+2] ... inactive
CCCCC/C=C\C/C=C\CCCCCCCC(=O)O ... inactive
CC/C(=C(/CC)c1ccc(OP(=O)(O)O)cc1)c1ccc(OP(=O)(O)O)cc1 ... inactive
Cc1cccc(OCC(O)CNC(C)(C)C)c1C (stereo not drawn) ... inactive
O=[N+]([O-])c1cccc(S(=O)(=O)OC[C@@H]2CO2)c1 ... active
CCc1cccc2c3c([nH]c12)C(CC)(CC(=O)O)OCC3 (stereo not drawn) ... inactive
Oc1cccc(O)c1O ... inactive
CN(C)CC(=O)O ... inactive
CN(N=O)C(=O)c1c(N(C)N=O)ncn1C ... active
O=C(O)C[C@H](NC(=O)COc1cc(Cl)c(Cl)cc1Cl)C(=O)O ... inactive

Exercise: Look up the recorded call for `CCC(C)(C)c1cc(-n2nc3ccccc3n2)c(O)c(C(C)(C)CC)c1` in this test.
Key: inactive

Exercise: Look up the recorded call for `O=C(Cn1c(=O)sc2ccccc21)OCc1ccccc1` in this test.
Key: inactive

Exercise: Look up the recorded call for `N#Cc1c(Cl)cccc1Cl` in this test.
Key: inactive

---

- Test system: CCRIS mutagenicity, Ames/micronucleus/aberration tests
- Protocol: CCRIS mutagenicity studies
- Run Parameters: Test System: AMES SALMONELLA TYPHIMURIUM; Strain/Indicator: TA98; Metabolic Activation: NONE; Method: PREINCUBATION
- From the text: The CCRIS database contains chemical records with carcinogenicity, mutagenicity, tumor promotion, and tumor inhibition test results. It was developed by the National Cancer Institute (NCI). Data are derived from studies cited in primary journals, current awareness tools, NCI reports, and other sources. Test results have been reviewed by experts in carcinogenesis and mutagenesis. CCRIS provides historical information from the years 1985 - 2011. It is no longer updated. […]
Activity calls are given as the source filed them. No rule for the calls is given here.
Tick one outcome: yes (1) (active), no (0) (inactive)

COc1nncc2ccccc12 ... no (0)
Cc1ccc(N(C)C)cc1 ... no (0)
CCCCCN(CCCCC)CCCCC ... no (0)
Cc1ccc(C)o1 ... no (0)
C=CC[N+](C)(C)CC=C ... no (0)
Nc1ccc(-c2ccc(N)c(F)c2)cc1F ... yes (1)

Exercise: Look up the recorded call for `CC(=O)Nc1cccc2ncccc12` in this test.
Key: no (0)

Exercise: Look up the recorded call for `CCCCCC(=O)Cc1cc(O)cc2c1C(=O)Oc1cc(O)c(C(=O)O)c(CCCCC)c1O2` in this test.
Key: no (0)

Exercise: Look up the recorded call for `CC(=O)OCc1ccccc1[N+](=O)[O-]` in this test.
Key: no (0)

Exercise: Look up the recorded call for `C=CC(=O)OCCBr` in this test.
Key: no (0)

Exercise: Look up the recorded call for `C[C@]12C=CC(=O)C=C1CC[C@@H]1[C@@H]2[C@@H](O)C[C@@]2(C)[C@H]1CC[C@]2(O)C(=O)CO` in this test.
Key: no (0)

Exercise: Look up the recorded call for `Nc1ccc([N+](=O)[O-])cc1Cl` in this test.
Key: yes (1)

Exercise: Look up the recorded call for `O=S(=O)(O)c1ccc2cc(Oc3ccc4cc(S(=O)(=O)O)ccc4c3)ccc2c1` in this test.
Key: no (0)
